tested on: Candida tropicalis IFO 10241
measurement.name: MIC (µg/mL)

compound="COc1cc(O)c2c(c1)C(=O)c1c(cc3c(c1O)-c1c(cc(C)c(C(=O)N[C@H](C)C(=O)O)c1O)[C@H](O[C@@H]1O[C@H](C)[C@H](NC=N)[C@H](O[C@@H]4OC[C@@H](O)[C@H](O)[C@H]4O)[C@H]1O)[C@H]3O)C2=O [KHM-9, 4'-Amidinopradimicin C]" prefix_operator=> measured=100
compound="COc1cc(O)c2c(c1)C(=O)c1c(cc3c(c1O)-c1c(cc(C)c(C(=O)N[C@H](C)C(=O)O)c1O)[C@H](O[C@@H]1O[C@H](C)[C@H](NC#N)[C@H](O[C@@H]4OC[C@@H](O)[C@H](O)[C@H]4O)[C@H]1O)[C@H]3O)C2=O [KHM-2, 4'-N-Cyanopradimicin C]" prefix_operator== measured=12.5

----------
Reported MIC by item:
tested on: Aspergillus fumigatus IAM 2034; experiment: MIC, two-fold agar dilution, A. fumigatus IAM 2034; type: cell-based; conditions: IAM2034; Aspergillus fumigatus IAM 2034; YMA pH 7.0, 28° C., 40 hours; read-out: MIC
measurement.name: MIC (µg/mL)

chemical_smiles=COc1cc(O)c2c(c1)C(=O)c1c(cc3c(c1O)-c1c(cc(C)c(C(=O)N[C@H](C)C(=O)O)c1O)[C@H](O[C@@H]1O[C@H](C)[C@H](N)[C@H](O[C@@H]4OC[C@@H](O)[C@H](O)[C@H]4O)[C@H]1O)[C@H]3O)C2=O measured=3.1
chemical_smiles=COc1cc(O)c2c(c1)C(=O)c1c(cc3c(c1O)-c1c(cc(C)c(C(=O)N[C@H](C)C(=O)O)c1O)[C@H](O[C@@H]1O[C@H](C)[C@H](N(C)N=O)[C@H](O[C@@H]4OC[C@@H](O)[C@H](O)[C@H]4O)[C@H]1O)[C@H]3O)C2=O measured=3.1

----------
test system: Candida albicans A9540; assay: animal or person; format: in vivo, male ICR mice infected with Candida albicans A9540; conditions: Candida albicans, A9540, 480 h; C. albicans, mice, 12.5 mg/kg iv, 20th day post-infection; read-out: S/T (No. of survivors/tested) (converted)
measurement.name: responders at 12.5 mg/kg (%)

compound="COc1cc(O)c2c(c1)C(=O)c1c(cc3c(c1O)-c1c(cc(C)c(C(=O)N[C@H](C)C(=O)O)c1O)[C@H](O[C@@H]1O[C@H](C)[C@H](NC#N)[C@H](O[C@@H]4OC[C@@H](O)[C@H](O)[C@H]4O)[C@H]1O)[C@H]3O)C2=O [KHM-2, 4'-N-Cyanopradimicin C]" measurement_name="responders at 12.5 mg/kg" measured=40
compound="COc1cc(O)c2c(c1)C(=O)c1c(cc3c(c1O)-c1c(cc(C)c(C(=O)N[C@H](CO)C(=O)O)c1O)[C@H](O[C@@H]1O[C@H](C)[C@H](N)[C@H](O[C@@H]4OC[C@@H](O)[C@H](O)[C@H]4O)[C@H]1O)[C@H]3O)C2=O [Pradimicin FA-2, reference compound]" measurement_name="responders at 12.5 mg/kg" measured=80
compound="CN[C@@H]1[C@H](O[C@@H]2OC[C@@H](O)[C@H](O)[C@H]2O)[C@@H](O)[C@H](O[C@H]2c3cc(C)c(C(=O)N[C@H](CO)C(=O)O)c(O)c3-c3c(cc4c(c3O)C(=O)c3cc(OC)cc(O)c3C4=O)[C@@H]2O)O[C@@H]1C [Pradimicin FA-1, reference compound]" measurement_name="responders at 12.5 mg/kg" measured=20
compound="COc1cc(O)c2c(c1)C(=O)c1c(cc3c(c1O)-c1c(cc(C)c(C(=O)N[C@H](CO)C(=O)O)c1O)[C@H](O[C@@H]1O[C@H](C)[C@H](N(C)C#N)[C@H](O[C@@H]4OC[C@@H](O)[C@H](O)[C@H]4O)[C@H]1O)[C@H]3O)C2=O [KHM-3, 4'-Cyanooradimicin FA-1]" measurement_name="responders at 12.5 mg/kg" measured=0
